Test system: Staphylococcus aureus
Protocol description: Antimicrobial activity against heterogeneous vancomycin-intermediate Staphylococcus aureus by agar dilution method
Assay type: functional
Quantity measured: MIC50 (µg/mL)
Value expressed in µg/mL; do not type the unit.

Q: Request the reported MIC50 associated with `Nc1nc(/C(=N/O)C(=O)N[C@@H]2C(=O)N3C(C(=O)O)=C(/C=C4\CCN([C@@H]5CCNC5)C4=O)CS[C@H]23)ns1`
Ans: 2

Q: Request the reported MIC50 associated with `CC(=O)NC[C@H]1CN(c2ccc(N3CCOCC3)c(F)c2)C(=O)O1`
Ans: 1

Q: Request the reported MIC50 associated with `CN[C@H](CC(C)C)C(=O)N[C@H]1C(=O)N[C@@H](CC(N)=O)C(=O)N[C@H]2C(=O)N[C@H]3C(=O)N[C@H](C(=O)N[C@H](C(=O)O)c4cc(O)cc(O)c4-c4cc3ccc4O)[C@H](O)c3ccc(c(Cl)c3)Oc3cc2cc(c3O[C@@H]2O[C@H](CO)[C@@H](O)[C@H](O)[C@H]2O[C@H]2C[C@](C)(N)[C@H](O)[C@H](C)O2)Oc2ccc(cc2Cl)[C@H]1O`
Ans: 1

Q: Request the reported MIC50 associated with `CN(C)c1cc(NC(=O)CNC(C)(C)C)c(O)c2c1C[C@H]1C[C@H]3[C@H](N(C)C)C(O)=C(C(N)=O)C(=O)[C@@]3(O)C(O)=C1C2=O`
Ans: 0.25

----------
Test system: Staphylococcus aureus
Protocol description: Antimicrobial activity against SCCmec type III vancomycin-intermediate Staphylococcus aureus isolate xa07029 by agar dilution method
Type: functional
Quantity measured: MIC

Q: Request the reported MIC associated with Cc1onc(-c2ccccc2)c1C(=O)N[C@@H]1C(=O)N2[C@@H]1SC(C)(C)[C@@H]2C(=O)O [OXACILLIN]
Ans: > 64 µg/mL

Q: Request the reported MIC associated with CO[C@H]1/C=C/O[C@@]2(C)Oc3c(C)c(O)c4c(O)c(c(/C=N/N5CCN(C)CC5)c(O)c4c3C2=O)NC(=O)/C(C)=C\C=C\[C@H](C)[C@H](O)[C@@H](C)[C@@H](O)[C@@H](C)[C@H](OC(C)=O)[C@@H]1C [RIFAMPIN]
Ans: > 256 µg/mL

Q: Request the reported MIC associated with CC[C@H]1OC(=O)[C@H](C)[C@@H](O[C@H]2C[C@@](C)(OC)[C@@H](O)[C@H](C)O2)[C@H](C)[C@@H](O[C@@H]2O[C@H](C)C[C@H](N(C)C)[C@H]2O)[C@](C)(O)C[C@@H](C)C(=O)[C@H](C)[C@@H](O)[C@]1(C)O [ERYTHROMYCIN]
Ans: > 256 µg/mL

Where do these numbers come from? They come from ChEMBL document CHEMBL1649574.
